Where do these numbers come from? They come from PubChem BioAssay AID540267.

Assay: Small Molecules that selectively kill Giardia lamblia: qHTS;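 note: parasites exposed to compound for two days anaerobically before the ATP read; % is set by controls: 0 for no effect and ±100 for the full control effect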
Settings: Giardia lamblia trophozoite viability; at 7.66 µM
Description: Giardia lamblia is a human pathogen afflicting impoverished nations, and the most common cause of outbreaks of diarrhea in the United States. Giardia has been classified by the CDC as a category B bioterrorism organism. The favored anti giardiasis drugs in the US are metronidazole or tinidazole, compounds that have undesirable side effects. […] 5. Dispense 4 ul/well ATPLite 1-Step Luminescence assay kit […] 7. Read luminescence signal on ViewLux plate reader
The campaign covered roughly 340,000 compounds. About 530 (0.16%) were called active. Inconclusive results (about 2%) are left out. Cut-off read from the data, not from the text of the source: active = activity change below about -80%; inconclusive = between about -30% and that limit; inactive = weaker than that. This is one part of a sample in which actives are shown more often than they occur.
Labels: 1 (active), 0 (inactive)

compound=Brc1nc2ncnc(NCc3ccco3)c2[nH]1 category_label=0
compound=OC[C@@H]1O[C@H](n2cnc3c(SCc4ccccc4)ncnc32)[C@H](O)[C@H]1O category_label=0
compound=CC(=O)c1c(C)n([O-])c2ccccc2[n+]1=O category_label=1
compound=c1ccc(-n2ncc(-c3nn[nH]n3)n2)cc1 category_label=0
compound=Cc1c(C=O)c2ccccc2n1CC(=O)O category_label=0
compound="C=C1CCN(C(CC(C)C)C(=O)NCc2cc(OC)c(OC)c(OC)c2)S(=O)(=O)c2ccccc21 (stereo unspecified)" category_label=0

====

assay: Small Molecules that selectively kill Giardia lamblia: qHTS; conditions: Giardia lamblia trophozoite viability; at 7.66 µM;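 note: parasites exposed to compound for two days anaerobically before the ATP read; % is set by controls: 0 for no effect and ±100 for the full control effect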
Among all 340,000 compounds or so, about 530 (0.16%) were called active. About 2% were inconclusive and are not listed. Cut-off read from the data, not from the text of the source: active = activity change below about -80%; inconclusive = between about -30% and that limit; inactive = weaker than that. Many of the other results were omitted from the sample, so actives are more common in it than they were.
Classes used: active, inactive

compound=COc1ccc(-c2nc3c(c(SCC(=O)Nc4ccc(C(=O)O)cc4)n2)Cc2ccccc2O3)cc1 category_label=inactive
compound=COc1ccc(S(=O)(=O)N2CCC(C(=O)OCC(=O)c3ccccc3)CC2)cc1[N+](=O)[O-] category_label=inactive
compound=O=[N+]([O-])c1ccc(C=NN=Cc2ccc([N+](=O)[O-])cc2)cc1 category_label=inactive
compound="N#Cc1c(N)nc2c(c1N)CC(C(F)(F)F)O2 (stereo not given)" category_label=inactive
compound=O=c1c([N+](=O)[O-])cccn1Cc1ccc(F)cc1Cl category_label=active
compound=CCN(CC)C(=O)COc1coc(CN2CCN(Cc3ccccc3)CC2)cc1=O category_label=inactive
compound=C=CCNC(=O)c1ccc2nc(-c3ccco3)c(-c3ccco3)nc2c1 category_label=inactive
compound="COc1ccc2c(C)cc(SCC(=O)NCC3CCCO3)nc2c1 (stereo not given)" category_label=inactive
compound="CCN(CC)CCCNC(=O)c1c(O)c2cc(F)cc3c2n(c1=O)C(C)CC3 (stereo not given)" category_label=inactive
compound=C/[N+]([O-])=C\c1ccc([N+](=O)[O-])o1 category_label=active

====

experiment: Small Molecules that selectively kill Giardia lamblia: qHTS; conditions: Giardia lamblia trophozoite viability; at 7.66 µM; active compounds read low;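 note: parasites exposed to compound for two days anaerobically before the ATP read; % is set by controls: 0 for no effect and ±100 for the full control effect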
About 530 (0.16%) of roughly 340,000 compounds were called active. Roughly 2% stayed inconclusive and do not appear here. The sample holds actives, similar compounds and a random draw of the others, so the mix is not that of the screen.
Here the recorded activity change is given for each entry.
MEASUREMENT_NAME: activity change (%)

compound="C=CCCN(C(Cc1ccccc1)C(=O)OC)S(=O)(=O)c1cc(Br)ccc1Br (stereo unspecified)" data_value=-13
compound=O=C(Cc1c(F)cccc1Cl)Nc1ncc([N+](=O)[O-])s1 data_value=-90.9
compound=C/C(CC(=O)Nc1ccc(C)cc1C)=N\NC(=O)C(C)C data_value=-14.4
compound=COc1ccc2c(c1)CC[C@@H]1[C@@H]2CC[C@]2(C)C(=O)CC[C@@H]12 data_value=2.55
compound="O=C(Nc1cc(S(=O)(=O)N2CCCCC2)ccc1Cl)C1COc2ccccc2O1 (stereo unspecified)" data_value=9.58
compound="CC1CC(C)CN(c2oc(-c3ccc(OCc4ccc(Cl)cc4)cc3)nc2C#N)C1 (stereo unspecified)" data_value=25.3
compound="O=C(Nc1ncc([N+](=O)[O-])s1)C1COc2ccccc2O1 (stereo unspecified)" data_value=-95.9
compound=COc1ccc(S(=O)(=O)N2CCOCC2)cc1NC(=O)Cc1c(F)cccc1Cl data_value=0.481
compound=Cc1ccccc1NCC(=O)N/N=C\c1ccc([N+](=O)[O-])s1 data_value=-89.1
compound=CCN(CC)S(=O)(=O)c1ccc(N2CCCC2)c(NC(=O)c2ccc([N+](=O)[O-])o2)c1 data_value=-96.4
compound="COc1cc(OC)c2c(c1C(CCN1CCCCC1)c1ccc(N(C)C)cc1)OC(=O)CC2c1ccc(N(C)C)cc1 (stereo unspecified)" data_value=7.67
compound=Cc1ccc(-c2nc3ccccn3c2Nc2ccc(F)cc2)o1 data_value=13.3
compound=Cc1cccc(/C=N/NC(=O)CNc2cccc3ccccc23)n1 data_value=-9.25
compound=CC(=O)N1CCc2c(sc(NC(=O)CCS(=O)(=O)c3ccccc3)c2C#N)C1 data_value=-1.29
compound=CN(CC(=O)Nc1ccc(OC(F)(F)F)cc1)C(=O)C1CCC1 data_value=29.9
compound=O=C(c1ccc2c(=O)n(Cc3ccco3)c(=S)[nH]c2c1)N1CCCC1 data_value=4.07
compound=CN(c1ccccc1)S(=O)(=O)c1cccc(NC(=O)Cc2c(F)cccc2Cl)c1 data_value=6.09
compound=COC(=O)CSc1nnc(NC(=O)CCc2ccccc2)s1 data_value=-28.2
compound="COC(=O)c1ccc(OCC(O)CN(CCO)CC(O)Cn2ccc3ccccc32)cc1 (stereo unspecified)" data_value=8.7
compound="Cc1ccc(N2C(=O)C3C(c4ccccc4)(C2=O)C3(c2ccccc2)c2ccccc2)cc1 (stereo unspecified)" data_value=6.33
compound=CC(C)Cc1nnc(NC(=O)CCc2ccccc2)s1 data_value=-6.99

====

We begin with a simple list: items and their reported activity change.
Assay: Small Molecules that selectively kill Giardia lamblia: qHTS;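 note: parasites exposed to compound for two days anaerobically before the ATP read; % is set by controls: 0 for no effect and ±100 for the full control effect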
Conditions: Giardia lamblia trophozoite viability; at 7.66 µM; active compounds read low
Method: Giardia lamblia is a human pathogen afflicting impoverished nations, and the most common cause of outbreaks of diarrhea in the United States. Giardia has been classified by the CDC as a category B bioterrorism organism. The favored anti giardiasis drugs in the US are metronidazole or tinidazole, compounds that have undesirable side effects. […] 5. Dispense 4 ul/well ATPLite 1-Step Luminescence assay kit […] 7. Read luminescence signal on ViewLux plate reader
The campaign covered roughly 340,000 compounds. About 530 (0.16%) were called active. Not shown: some 2% with an inconclusive outcome. Shown is part of a subset that was picked to be rich in actives.
MEASUREMENT_NAME: activity change (%)

compound="COC(=O)C1=C(C)N(C)C(=S)NC1c1ccccc1 (centres undefined)" unit_text=% data_value=-6.21
compound="CC(=O)Nc1ccc(S(=O)(=O)N2N=NC3C2C2CC4C3(CN(C(=O)OC(C)(C)C)S4(=O)=O)O2)cc1 (centres undefined)" unit_text=% data_value=-7.9
compound=O=[N+]([O-])/C=C1\CCCCCN1 unit_text=% data_value=-16.8
compound="COC(=O)C1=C(C)N(C)C(=O)NC1c1ccc([N+](=O)[O-])o1 (centres undefined)" unit_text=% data_value=-87.4
compound=Cc1noc(C)c1NC(=O)Nc1cccc2c1O[C@H](CN(C)C(=O)Nc1ccccc1)[C@@H](C)CN([C@H](C)CO)C2=O unit_text=% data_value=8.07
compound="Cc1nnc(SC(C(=O)Nc2cc(Cl)cc(Cl)c2)c2ccccc2)[nH]c1=O (centres undefined)" unit_text=% data_value=24.1
compound=O=C(N/N=C/c1ccc([N+](=O)[O-])o1)c1cn(-c2ccccc2)nc1-c1ccc(F)cc1 unit_text=% data_value=-93
compound="CCCCCCC1(C)NC(c2ccc3c(c2)OCO3)=CC(c2ccccc2O)N1 (centres undefined)" unit_text=% data_value=-22.5
compound=O=S(=O)(c1cccc(C(F)(F)F)c1)N1CCN(c2nc(-c3cccs3)nc3ccccc23)CC1 unit_text=% data_value=27.4
compound=Cc1ccc(Nc2c(-c3ccc(C)s3)nc3ccccn23)cc1 unit_text=% data_value=1.31
compound=COc1ccc(Cn2c(=O)[nH]c3cc(C(=O)N4CCN(C(=O)c5ccco5)CC4)ccc3c2=O)cc1 unit_text=% data_value=-2.35
compound="COc1ccc(-c2ccc(C3C4C=CCCC4(C)C(=O)N3Cc3ccccc3)c(F)c2)cc1OC (centres undefined)" unit_text=% data_value=5.8
compound=O=C(NCCCN1CCOCC1)c1cn(-c2ccccc2)nc1-c1ccc(F)cc1 unit_text=% data_value=-14.8
compound="O=C1CC(c2ccccc2)CC2=C1C(c1ccco1)n1nc(C(F)(F)F)nc1N2 (centres undefined)" unit_text=% data_value=14.6
compound="Cc1ccc(CNC(=O)C2(C(F)(F)F)C/C(=C\\CCO)CCCO2)o1 (centres undefined)" unit_text=% data_value=-14.6
compound="CCC(=O)c1ccc(OCC(=O)N(CC)CC2COc3ccccc3O2)cc1 (centres undefined)" unit_text=% data_value=5.76
compound=CCOc1ccc(N(C)Cc2cc(=O)oc3ccc(OC)cc23)cc1 unit_text=% data_value=0.548
compound=CCc1nn(CC(=O)N2CCN(CC)CC2)c(=O)c2cccn12 unit_text=% data_value=-17.4
compound="COc1ccc(C2NC(=O)N(C)C(C)=C2[N+](=O)[O-])cc1 (centres undefined)" unit_text=% data_value=22.3
